TESTED_ON: full-length HA from isolate A/Vietnam/1194/2004 (H5N1TV) on PER.C6 cells (influenza A virus A/Vietnam/1194/2004 …, UniProt Q80A26 6-554)
EXPERIMENT_SUMMARY: flow cytometry, transfected PER.C6 cells
Assignment: determine reported flow cytometry signal at 10 µg/ml for the given binders.
No unit in the answer, only the number.

Query: flow cytometry signal at 10 µg/ml; subject: CR6262 (antibody, V domains shown) VH: QVQLQQSGAEVKKPGSSVKVSCKVSGVIFSGSAISWVRQAPGQGLEWMGGISPLFGTTNYAQKFQGRVTITADQSTNTTYMEVNSLRYEDTAVYFCARGPKYYSEYMDVWGKGTTVTVSS VL: DIQMTQSPSSLSASVGDRVTITCRASQGISSYLAWYQQKPGKVPTLLIYDASTLRSGVPSRFSGSGSATDFTLTISSLQPEDVATYYCQRYNSAPPITFGQGTRLEIKR 84.3

CR6257 (antibody, V domains shown) VH: QVQLVQSGAEVKKPGSSVKVSCKASGGPFRSYAISWVRQAPGQGPEWMGGIIPIFGTTKYAPKFQGRVTITADDFAGTVYMELSSLRSEDTAMYYCAKHMGYQVRETMDVWGKGTTVTVSS VL: QSALTQPAAVSGSPGQSITISCTGTSSDVGGYNYVSWYQQHPGKAPKLMIYEVSNRPSGVSNRFSGSKSGNTASLTISGLQAEDEADYYCSSYTSSSTYVFGTGTKVTVLG , same question. 365

CR6344 (antibody, V domains shown) VH: QVQLVQSGAEVKKPGSSVRVSCKASGSIFRNYAMSWVRQAPGQGLEWMGGIIAIFGTPKYAQKFQGRVTITADESTSTVYMELSGLRSEDTAMYYCARIPHYNFGSGSYFDYWGQGTLVTVSS VL: TVLTQPPSVSGAPGQRVTISCTGSSSNIGAGYDVHWYQQLPGTAPKLLIYGNSNRPSGVPDRFSGSKSGTSATLGITGLQTGDEADYYCGTWDSSLSAYVFGTGTKVTVLG , same question. 768

CR6268 (antibody, V domains shown) VH: QVQLVQSGAEVKKPGSSVKVSCKASGGTFSSYAISWVRQAPGQGLEWMGGIMGMFGTTNYAQKFQGRVTITADEFTSAAYMELRSLRSEDTAVYYCARSSGYYPEYFQDWGQGTLVTVSS VL: QSVLTQPPSESVSPGQTASVTCSGHKLGDKYVSWYQQKPGQSPVLLIYQDNRRPSGIPERFIGSNSGNTATLTISGTQALDEADYYCQAWDSSTAVFGGGTKLTVLG , same question. 422

CR6307 (antibody, V domains shown) VH: QVQLVQSGGGLVKPGGSLRLSCAASGFTFSSYSMNWVRQAPGKGLEWVSSISSSSSYIYYVDSVKGRFTISRDNAKNSLYLQMNSLRAEDTAVYYCARGGGSYGAYEGFDYWGQGTLVTVSS VL: EIVLTQSPGTLSLSPGERATLSCRASQRVSSYLAWYQQKPGQAPRLLIYGASTRAAGIPDRFSGSGSGTDFTLTISRLEPEDSAVYYCQQYGRTPLTFGGGTKVEIKR , same question. 485
